Would you mind telling me the reported gcPBM binding intensity (ln) of each entry?
test system: PfSIP2 AP2 domain 1 (GST-tagged); assay: gcPBM binding intensity (ln(normalized median fluorescence intensity)); higher = stronger DNA binding
In all, about 25,000 sequences were measured (“ln(normalized median fluorescence intensity)”: median about 7.1, highest 2% from about 10 on). The full list was thinned out, with the highest values kept by preference.
API note: the answer field is a bare number with no unit suffix.

[Q] Recorded gcPBM binding intensity (ln) of TATTTTATCATTTGCACACGCACACCGACATAAAAA [CACACA_site4348] , please.
[A] 7.71

[Q] Follow-up item: TTTATTTTATCATTTGCACACGCACCCAGACATAAA [CACACA_site4347]
[A] 10.8

[Q] Quick one: TAAATATATATATAAGTGCATTATATATATATATAA
[A] 8.97

[Q] Next entry: ATTATATAATAATGCATGCACCTTATTTTCATTTCA [GTGCAC_site9922]
[A] 10.7

[Q] Please do the same for GAACAAATTAAATAGGTGCATTAACATGTTCTATTT [GTGCAC_site9729] as well.
[A] 10.4

[Q] Another sequence: GTTCATTCATTTTAATGTACAAATTTAACTTTTTCT [XGTACX_site680]
[A] 6.91

[Q] What would you report for TATTATTTTTCATATGCATGCAAAAATAAAAAAATA [TGCATGCA_site350] ?
[A] 7.05

[Q] How about CCTTTCACATATAATACATGCATTATTATATATGAA [TGCATGCA_site287] ?
[A] 7.51

[Q] Try this sequence too: GCCAATAAAGATGTGGTGCATTATATATATATATAT
[A] 10.6

[Q] Subsequent entry: GGCATTTTATGAAGTAGTACCATAAATATTAAAGAT [XGTACX_site5287]
[A] 7.32

###

test system: PfSIP2 AP2 domain 1 (GST-tagged); test: gcPBM binding intensity (ln(normalized median fluorescence intensity)); higher = stronger DNA binding
Over roughly 25,000 sequences, “ln(normalized median fluorescence intensity)” has its median near 7.1; the highest 2% begin near 10. For the sample, the highest values were picked, then their nearest neighbours and some sequences at random.
Give measured gcPBM binding intensity (ln) for each item. Keep answers brief.
Just the number.

[Q] gcPBM binding intensity (ln) lookup needed for TGTATGTTTGGGTGCACACATAAATATTATATATAG [CACACA_site3397] , thanks.
[A] 12.2

[Q] What do you have for TCTTTCAATATTAATGCATGTTAATAATAAATTTTA [TGCATGCA_site448] ?
[A] 6.89

[Q] Then what about the sequence ATGTTAATTAATGAGGTGCATTGAATATTTCAATAA ?
[A] 10.6

[Q] # repeat for TTTTTTTTTTCTTAGGTGCAAAAAATAAGTATATAT [GTGCAC_site9394]
[A] 10.1

[Q] What do you get for TATAATAATATTATAGTGCATATTATTTATATATAA [GTGCAC_site9820] ?
[A] 8.67

[Q] How about this sequence: TATATATATATGTGCACACATATATAATATGTATAA [CACACA_site715]
[A] 9.37

[Q] Then TGATCAAATAAGTTTGCATGTCAACAATGCATATAT [TGCATGCA_site1025] ?
[A] 7.19

[Q] Subsequent entry: TATGTATGTTAGTGTGCACACATAAATATTATATAT [CACACA_site9121]
[A] 9.26

[Q] Thanks! And ATATATATATATATTGCACACATATAAATATATATA [CACACA_site8167] ?
[A] 9.22

[Q] Next: TCTTAAAATATATAGGTGCAAAAAAAAAAAAAAAAA
[A] 10.6

[Q] What do we get for AATGTAGAAATGGGTGCACACACATATATAATATAT [CACACA_site8799] ?
[A] 11.7

[Q] # repeat for TTAATATTGTATCCAAGTACACAAATTATTATATTT [XGTACX_site8067]
[A] 7.11

[Q] Same question, AAAATCTAATATAATGCACACATAAAAAAAAATCAA [CACACA_site9211] this time
[A] 7.52

[Q] Now the sequence AATATATATATATGTGCACACATATATAATATGTAT [CACACA_site716]
[A] 8.55

[Q] Try ACATATATATATATATATAATATTTTATATTTATTA [CACACA_negctrl_site713] next.
[A] 7.49

[Q] Again, but for TTTTAAAATTATTAGGTGCATATTTATTCTATATTT
[A] 10

[Q] Next: TATATATTAAAAATAGTGCAAAATAATATATATATA [GTGCAC_site9716]
[A] 8.84

[Q] Same lookup for TATATGTATGTTTGTGTGCACACATAAATATTATAT , please.
[A] 8.48

[Q] Moving on to the next sequence: AAAATCTAATATAATGCACACATAAAAAAAAAATCA [CACACA_site8871]
[A] 7.17

[Q] Note, next up: TGTAGAAATGGGTGCACACACATATAAAATCTATAT [CACACA_site7224]
[A] 12.2
